Entry source: the supplement of paper PMC12764529

assay: folding stability dG unfold from trypsin proteolysis; higher = more stable
Classification field: enter MET for folding stability dG unfold values not below 0.7 kcal/mol, NOT MET for values below it.

SAGGSPDIKFNEVKVELPTAETEAEFEKNTYKVEVPAPPELDITTTTTLTTSSGSTTTTTSTSPLELPSAGG [r13_191_JUSTAS]    NOT MET
SAGGSAGGPLYRVLILLKKPNGEPLLLPLVAEDPEKALELAERLRKEYEEKGYELVAVEIYEFPSAGGSAGG [r6_869_TrMRF]    MET
SAGGSAGGKKKVLILPKGKKKEYTIEEAKKILKEKLPENAKVRLLETGKEYPVKDLLKKLGIDLSAGGSAGG [r6_936_TrMRF]    NOT MET
SAGGFRIERDGDYLRIEIRVNDPPGQPVEEAKNIMKQLFGFKDIKVDEIEPNPNGQAEIEIEIPFPKSAGGS [r16_234_TrROS]    NOT MET
SMRIHDSNGQSYTIMIRTPDPNVTPEKIVKAIDEAGYKVTEIQRPPEKGHVHINIRVRDRERAIEAIKELSA [r9_1154_TrROS]    NOT MET
SAGGSAGGSAGGGKSITKVYTLPNGGKAVAVYNPETGKVEVYFFKPNGKLLEKKTFKAKSAGGSAGGSAGGS [r10_1044_TrMRF]    MET
SPTIKASYDPETGVLTVYVKLRDPETGEPIPAEAVAAKIKELFPDAEILDIEPNPDGYVKITVKVAPDAVSA [r9_87_TrMRF]    MET

* * *

Measured folding stability dG unfold by item
test: folding stability dG unfold from chymotrypsin proteolysis; higher = more stable
quantity.kind: folding stability dG unfold (kcal/mol)

SMMYLVKIKVRNKETGELVEEIELVVESEEEAEKIAEELAEELGLEVEVEVKRISPEELEDPEILKELLESA [r9_864_TrROS_Hall]    3.53
SAGGETRTFMFPFKPGMPLEEIIEELIDVLQKKGKDYPIEFKPIEPDPNGYMLFMATVTNNKITIFWSAGGS [r8_7_TrROS]    3.03
SAMVYEFPFETEEEAREKAREVLLEKLGASPEEEKVELDIEIEIREDPETGKKLATVTVPKVTVSPKKSSAG [r14_467_JUSTAS]    0.411
SAGGSAGGSAGGMVTATVTEYQPGEGLLTVKPPDGSTITIAVPPSVSYEELKNTTIDLSLSAGGSAGGSAGG [r7_296_JUSTAS]    0.021
SAGGSAMSIPLEELIEYVKKPGYKITEKKLPNGTLEITITNPKTGKTTKVTVYPPPTFSVEIKPDPSAGGSA [r15_442_JUSTAS]    0.876
SAGGSAGGSAGGPNIKIKDVHEHPPEDGNPIVMFEIKAKDDDGEKVYIIITPDKIHIMPISAGGSAGGSAGG [r7_960_TrROS]    1.15
SAGGSAGGSSVEYTFLSKNPEEAKKKFEEKIKEIEEKGEGKIEKAEFTIVSPDNPEYLKLISSSAGGSAGGS [r12_551_JUSTAS]    0.136

* * *

test: folding stability dG unfold (combined trypsin and chymotrypsin); higher = more stable
quantity.kind: folding stability dG unfold (kcal/mol)

SEPLTPEEVEKFAEWIAKELNEEHGKEVKVEVEYHPDDGYFRAEIEIPNGRRIEITFNPEFGQLDIEVEDSA [r9_9_TrROS]    1.71
SATVTLVSVEKEGDKTTVTTRDPSGYTVTVTNPDGSIVLAPIPAEGAEAAIAAIKAAHPGVTVTLEAAASAG [r14_528_JUSTAS]    1.15
SAGGSAGGSKVKLTFTIPPGTTPEEAIAKAEELAKKLNIPIVKIDSIEYDPETGTVRIELELDSAGGSAGGS [r12_131_TrMRF]    4.31
SAGGSAGGSAEKGIAFILLVTEEGDLEKALETAEELKKELEEKTGKPVEVVVNIFVVEPELFSAGGSAGGSA [r18_515_TrMRF]    2.24
SAGKIPPIKDIEPNPDNGMLMITIPFPDDGKLKVRIENKGQDQEYEFPPGMSFMIPPSNAPIKIEIEWDSAG [r14_96_TrROS]    0.874
SAGGSAGGSKITSIQPHDGFWRIEIKPDGKPQERWINMDELPPNIKIPPGYKVKIEPFSPGDMSAGGSAGGS [r12_1005_TrROS]    -0.26
AVTVTVEPVGDALVVTVDLPRADGSPVRVVALFDPDGTVARVLVARSDPGPPRFVEVPAAPASDPVLLAAGS [r1_301_TrMRF]    0.993
SAKKKKVKKKEIKVTLKLKLPGAKIKSVKVEKKGDKLVITVEIELENGEKLKLTAVFDKDGKIVKIELESAG [r14_719_TrROS_Hall]    1.74
SAGGSAGGSAGGMSITFTAPDGSKITATIDPDGNVLVEVHLGDKPYYVKGPVETLLKNAPSAGGSAGGSAGG [r7_178_TrMRF]    0.719
SAGGSAGGSAGMTIEELKAKGYKVEVVKLPDSPEEVVVVTYPVPPGGIEKSVIPLSEVKLSAGGSAGGSAGG [r17_311_JUSTAS]    0.375
SAGGSAGGSAGKRRIYILGMDTVQVAEYLRDTGPDIKVEVFNPGQPMEEFQDNYDIVIFVSAGGSAGGSAGG [r17_225_TrROS]    2.04

* * *

assay: folding stability dG unfold (combined trypsin and chymotrypsin); higher = more stable
Classification field: enter y for folding stability dG unfold values not below 1 kcal/mol, n for values below it.

SAGGSAMKIEITVEKNENGELTITVKIYDKNGKLVKEIKLKVKTEEEAKKALKELAEKLGIEVEPESAGGSA [r15_242_TrROS_Hall]    y
SAGGFTIEELAEKFPNVEVYVQRFGNKYLIQFEFEDKDRKYQVVIKYDGPGKIDIKVMPPNQDAEEALSAGG [r13_859_TrROS]    y
SAGGSAGGSNWIEKAINEAMKQHPPGQERKVPIEIYNPNNNKPIGKIPIRIRMDKDGPMEIEISAGGSAGGS [r20_151_TrROS]    n
SAGGFEFEFTNPDGKKIKVEIERHPEEGYIMLKIQYGGKPVETFPPGDEFEIPPDGIDAVIMFRLPPESAGG [r13_958_TrROS]    y
SMTFVLPYPKEGKTITVTYPDLESAVSSSGVATFQDPALLAQVIAALPSSVIVKEIKKNPDGTYTLTVAASA [r9_997_JUSTAS]    n
SAGGDITITKNPENDYYTITLPLPNSNSTAVAFLDPKTGTAVVINPDNPLVLVLEPNGTLKEVKLLPPSAGG [r13_101_TrMRF]    n
SAMKVKVIVINPDGKPQEFEFEAEEGDPEKLVEEVEAEIKKLHPNSDIKFKAEVLEVKPDGEITILVSDSAG [r14_622_TrMRF]    y
SAGGKEIKIEVELDEDGNLTVTITLPDGRVVRITFTPGKITVEVFDAETGELVEEKTLTADELLELLSAGGS [r8_476_TrROS_Hall]    y
SAGGSAGGKKVYEIKGLTPEQIRALVKENKGKVTIYYKDGKKEEKTIKEGDEIAPGETVYIEVESAGGSAGG [r6_303_TrROS_Hall]    y
SMITSTTTTDPNSNTTTTTYTYPDTTYTVTRTLNPDNTVTVTVTATTPPGPTTPLSTVNLSPTDTLTLPVSA [r9_1172_JUSTAS]    y
SAGGSAGGEATEGTLIVGGKPVRVTVERTPEGGRIATVELPNGVTVVARLNPVTRGAEILEVVESAGGSAGG [r6_290_TrMRF]    y
SAGGSAGGKKKVLLVKVEIELPNGEKLELVAESEEEALEALKKLLEKKGLKIKKVEIVELEEKESAGGSAGG [r6_405_TrROS_Hall]    y
SAGGSASLEELAEKLREKLPPEEAEKLRELLKELEEKGYEIVEIRIEVLPNGEKKVTIKLKVKKKPSAGGSA [r15_613_TrROS_Hall]    y

* * *

test: folding stability dG unfold (combined trypsin and chymotrypsin); higher = more stable
Measured folding stability dG unfold by item
quantity.kind: folding stability dG unfold (kcal/mol)

SAGDWIREAIKKAGYDNVEIEEIQPNPNGGVSIVIQPSPGMPREQQRRAQEEIVDALREESPDFKIHIHSAG [r5_101_TrROS]    0.192
SAGGSAGGSAGGSSSVSVDTDPETGLITVTTYSSSGGVTVTLYEKPPDGSLTPVSTTAVSAGGSAGGSAGGS [r4_106_JUSTAS]    1.01
SEKPEFKIVKIEVVEVDEDGKTVKVRVVVEGPDGRLYEVEMTLEELKKLLEELGIDLEDIKPGDVIVIPPSA [r9_1078_TrROS_Hall]    3.58
SAGGSAKNEYITVNITIIVYNPEDGKIEKIINLPIKVPKNLTKEQVINLAKKLLEEKGYEIAEIKGSAGGSA [r15_195_TrMRF]    2.85
